Target: T1, TIGIT (UniProt Q495A1 22-141, limits assumed)
T1 construct: also called T cell immunoreceptor with Ig and ITIM domains; hTIGIT
T1 sequence (looked up): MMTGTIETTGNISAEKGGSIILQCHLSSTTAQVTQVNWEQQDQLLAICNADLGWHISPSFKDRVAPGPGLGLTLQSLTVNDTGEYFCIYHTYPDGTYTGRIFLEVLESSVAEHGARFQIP
Assay: SPR (Carterra)
experimental_readout: Kd (nM)
// note: answer is a bare numeric in nM

Some entries whose results are on file:
TIGIT-211-18 (antibody, V domains shown) VH: EVQLLESGGGLVQPGGSLRLSCAASGFTFGTIPMSWVRQAPGKGLEWVGVIWGGGGTYYADSVKGRFTISRDNSKNTLYLQMNSLRAEDTAVYYCAKAHGNPVSDLSFDYWGQGTLVTVSS VL: DIQMTQSPSSLSASVGDRVTITCSGDKLGDKYTSWYQQKPGKAPKLLIYHTSRLQDGVPSRFSGSGSGTDFTLTISSLQPEDFATYYCQQSYNLPLTFGQGTKVEIK; 268
TIGIT-211-42 (antibody, V domains shown) VH: EVQLLESGGGLVQPGGSLRLSCAASGFTFNHYGMGWVRQAPGKGLEWVSYISSSGSSTYYADSVKGRFTISRDNSKNTLYLQMNSLRAEDTAVYYCAKGWLGNFDYWGQGTLVTVSS VL: DIQMTQSPSSLSASVGDRVTITCRASQGVRTSLAWYQQKPGKAPKLLIYGKNIRPSGVPSRFSGSGSGTDFTLTISSLQPEDFATYYCQQSYSFPLTFGQGTKVEIK; 66.1

Task item: Query: Kd; subject: TIGIT-211-17 (antibody, V domains shown) VH: EVQLLESGGGLVQPGGSLRLSCAASGFTFAEYSMNWVRQAPGKGLEWVSWISPHGALTYYADSVKGRFTISRDNSKNTLYLQMNSLRAEDTAVYYCARSYGGGFDYWGQGTLVTVSS VL: DIQMTQSPSSLSASVGDRVTITCRASQTIERRLNWYQQKPGKAPKLLIYQNDKRPSGVPSRFSGSGSGTDFTLTISSLQPEDFATYYCQQSYSIPPTFGQGTKVEIK
Reply: 472
